- Tested on: E. coli ATCC 25922
- Procedure Details: Checkerboard dilution assay for synergy between CAMPs and antibiotics
- Format: cell-based
- Protocol Conditions: peptide + levofloxacin, 5 × 10^5 CFU/mL
Where a SMILES comes first, the peptide text is derived from it. [ ]: non-standard residue; d: D form.
// Not satisfied strictly below 0.6 in FICI; Satisfied otherwise

Compound | Label Class
CC(C)C[C@@H](N)C(=O)N[C@@H](C(=O)N[C@H](Cc1c[nH]c2ccccc12)C(=O)N[C@H](CCCCN)C(=O)N[C@H](CC(C)C)C(=O)N[C@H](Cc1c[nH]c2ccccc12)C(=O)N[C@H](Cc1c[nH]c2ccccc12)C(=O)N[C@H](CCCNC(=N)N)C(=O)N[C@H](CC(C)C)C(=O)N[C@H](CCCNC(=N)N)C(=O)N[C@H](Cc1c[nH]c2ccccc12)C(=O)N[C@H](CC(C)C)C(=O)N[C@H](CCCCN)C(N)=O)C(C)C [ST1D] (H-[dL][dV][dW][dK][dL][dW][dW][dR][dL][dR][dW][dL][dK]-NH2) | Satisfied
CC[C@H](C)[C@H](NC(=O)[C@H](C)N)C(=O)N[C@@H](CCCCN)C(=O)N[C@H](C(=O)N[C@@H](CCCNC(=N)N)C(=O)N[C@@H](CCCCN)C(=O)N[C@@H](CC(C)C)C(=O)N[C@@H](Cc1ccccc1)C(=O)N[C@@H](CCCCN)C(=O)N[C@@H](CCCCN)C(=O)N[C@@H](CC(C)C)C(=O)N[C@@H](CC(C)C)C(=O)N[C@@H](CCCNC(=N)N)C(N)=O)[C@@H](C)CC [L1L] (H-AIKIRKLFKKLLR-NH2) | Not satisfied
CC[C@H](C)[C@H](NC(=O)[C@H](Cc1ccccc1)NC(=O)CN)C(=O)N[C@@H](CCCCN)C(=O)N[C@H](C(=O)N[C@H](C(=O)N[C@@H](CCCNC(=N)N)C(=O)N[C@@H](CCCCN)C(=O)N[C@@H](CC(C)C)C(=O)N[C@@H](CC(C)C)C(=O)N[C@@H](CCCNC(=N)N)C(=O)N[C@@H](CC(C)C)C(=O)N[C@@H](Cc1ccccc1)C(N)=O)C(C)C)[C@@H](C)CC [LCAPL9] (H-GFIKIVRKLLRLF-NH2) | Satisfied
CC[C@@H](C)[C@@H](NC(=O)[C@@H](Cc1c[nH]c2ccccc12)NC(=O)[C@H](N)CCCNC(=N)N)C(=O)N[C@H](CCCNC(=N)N)C(=O)N[C@H](Cc1c[nH]c2ccccc12)C(=O)N[C@@H](C(=O)N[C@H](Cc1c[nH]c2ccccc12)C(=O)N[C@H](CCCNC(=N)N)C(=O)N[C@H](CCCCN)C(=O)N[C@H](CCCCN)C(=O)N[C@H](CC(C)C)C(=O)N[C@H](CCCNC(=N)N)C(N)=O)C(C)C [24D] (H-[dR][dW][dI][dR][dW][dV][dW][dR][dK][dK][dL][dR]-NH2) | Satisfied
CC(C)C[C@H](NC(=O)[C@H](Cc1ccccc1)NC(=O)[C@H](CCCCN)NC(=O)[C@@H](N)CCCCN)C(=O)NCC(=O)N[C@@H](CCCCN)C(=O)N[C@@H](Cc1c[nH]c2ccccc12)C(=O)N[C@@H](CCCCN)C(=O)N[C@@H](CC(C)C)C(=O)N[C@@H](CCCNC(=N)N)C(=O)N[C@@H](Cc1ccccc1)C(=O)NCC(=O)N[C@@H](Cc1c[nH]c2ccccc12)C(N)=O [LCAPL15] (H-KKFLGKWKLRFGW-NH2) | Not satisfied
CC[C@H](C)[C@H](NC(=O)[C@H](CCCNC(=N)N)NC(=O)[C@H](CCCCN)NC(=O)[C@H](CC(C)C)NC(=O)[C@H](Cc1ccccc1)NC(=O)[C@H](CCCNC(=N)N)NC(=O)[C@H](C)NC(=O)[C@@H](N)C(C)C)C(=O)N[C@H](C(=O)N[C@@H](CCCCN)C(=O)N[C@@H](C)C(=O)N[C@@H](CC(C)C)C(=O)N[C@@H](Cc1ccccc1)C(N)=O)[C@@H](C)CC [LCAPL8] (H-VARFLKRIIKALF-NH2) | Satisfied
CC[C@H](C)[C@H](NC(=O)[C@H](Cc1c[nH]c2ccccc12)NC(=O)[C@@H](N)CCCNC(=N)N)C(=O)N[C@@H](CCCNC(=N)N)C(=O)N[C@@H](Cc1c[nH]c2ccccc12)C(=O)N[C@H](C(=O)N[C@@H](Cc1c[nH]c2ccccc12)C(=O)N[C@@H](CCCNC(=N)N)C(=O)N[C@@H](CCCCN)C(=O)N[C@@H](CCCCN)C(=O)N[C@@H](CC(C)C)C(=O)N[C@@H](CCCNC(=N)N)C(N)=O)C(C)C [24L] (H-RWIRWVWRKKLR-NH2) | Not satisfied
CC(C)C[C@H](NC(=O)[C@H](Cc1c[nH]c2ccccc12)NC(=O)[C@H](CCCNC(=N)N)NC(=O)[C@H](CC(C)C)NC(=O)[C@H](CCCNC(=N)N)NC(=O)[C@H](Cc1c[nH]c2ccccc12)NC(=O)[C@H](Cc1c[nH]c2ccccc12)NC(=O)[C@H](CC(C)C)NC(=O)[C@H](CCCCN)NC(=O)[C@H](Cc1c[nH]c2ccccc12)NC(=O)[C@@H](NC(=O)[C@@H](N)CC(C)C)C(C)C)C(=O)N[C@@H](CCCCN)C(N)=O [ST1L] (H-LVWKLWWRLRWLK-NH2) | Satisfied
CC[C@H](C)[C@H](NC(=O)CN)C(=O)N[C@@H](CCCCN)C(=O)N[C@H](C(=O)N[C@@H](CCCNC(=N)N)C(=O)N[C@@H](CCCCN)C(=O)N[C@@H](CC(C)C)C(=O)N[C@@H](Cc1ccccc1)C(=O)N[C@@H](CCCCN)C(=O)N[C@@H](CCCCN)C(=O)N[C@@H](CC(C)C)C(=O)N[C@@H](CC(C)C)C(=O)N[C@@H](CCCNC(=N)N)C(N)=O)[C@@H](C)CC [LCAPL2] (H-GIKIRKLFKKLLR-NH2) | Satisfied
CC[C@H](C)[C@H](N)C(=O)N[C@H](C(=O)N[C@@H](CCCCN)C(=O)N[C@@H](CCCNC(=N)N)C(=O)N[C@H](C(=O)N[C@@H](CC(C)C)C(=O)N[C@H](C(=O)N[C@@H](CCC(N)=O)C(=O)N[C@@H](CC(C)C)C(=O)N[C@@H](CCCCN)C(=O)N[C@@H](CCCCN)C(=O)N[C@@H](CC(C)C)C(=O)N[C@@H](CC(C)C)C(N)=O)[C@@H](C)CC)[C@@H](C)CC)[C@@H](C)CC [LCAPL10] (H-IIKRILIQLKKLL-NH2) | Not satisfied
